experiment: Stability assay: residual activity after incubation with 1 mM inhibitor, measured by pNA assay; type: physicochemical; design: key: fraction of activity at 0 h incubation (0.80 = 80%); conditions: incubation time 188.6 hours; 1 mM Cu2+; 25° C., pH 7, 0.1% K-sorbate; relative to 0 hours
measurement-kind: Residual Enzyme Activity
The answer should be a number; do not append a unit.

Query: Annotate the molecule Protease 10: known protease derived from Nocardiopsis sp. NRRL 18262, amino acids 1-188 of SEQ ID NO: 2 (protein) ADIIGGLAYTMGGRCSVGFAATNAAGQPGFVTAGHCGRVGTQVTIGNGRGVFEQSVFPGNDAAFVRGTSNFTLTNLVSRYNTGGYATVAGHNQAPIGSSVCRSGSTTGWHCGTIQARGQSVSYPEGTVTNMTRTTVCAEPGDSGGSYISGTQAQGVTSGGSGNCRTGGTTFYQEVTPMVNSWGVRLRT with its measured Residual Enzyme Activity.
Response: 0.723

Query: Please supply the value of reported Residual Enzyme Activity for the item Protease 11: protease from Nocardiopsis prasina DSM 15648, amino acids 1-188 of SEQ ID NO: 6 (protein, listed as Nocardiopsis prasina) ATGPLPQSPTPEADAVSMQEALQRDLGLTPLEADELLAAQDTAFEVDEAAAAAAGDAYGGSVFDTETLELTVLVTDAASVEAVEATGAGTELVSYGIEGLDEIIQDLNAADAVPGVVGWYPDVAGDTVVLEVLEGSGADVSGLLADAGVDASAVEVTSSAQPELYADIIGGLAYTMGGRCSVGFAATN
Response: 0.581

Query: Supply measured Residual Enzyme Activity of Metarhizium protease: known protease derived from Metarhizium anisopliae, amino acids 1-188 of SEQ ID NO: 4 (protein, listed as Metarhizium anisopliae) MELTKFLALLAVILPVAYGAPTQAASLHPQILEAMKRDLGLNAEQATVRVAREIHATDVIEQLRSSVAFAGAWIDADVLYIGITDQALADEVTAAGATPIVMTNSLSKLEKAKEDLDKIFIGRANTLETSSDTSSGIASYFVDVAANKLVIEALADSHGHAEQLAAQVGLTSEFEVRTVETMPTTMAT in your reply.
Response: 0.627

Provenance of the data: patent US7906310B2
